Entries and their GI50 values follow.
Tested on: RPMI-8226 leukemia
Assay: NCI tumour cell line growth inhibition, 48 h

Previously resolved entries follow.
Name the recorded GI50 for COc1cc2c(=O)n(CC3CCCCC3)c3c4cc[nH]c4ncc3c2cc1OC .
3.1 µM

What measured GI50 goes with O=C(N/N=C/c1ccc(N(CCCl)CCCl)cc1)c1ccc(C(=O)N/N=C/c2ccc(N(CCCl)CCCl)cc2)cc1 ?
1.33 µM

For the compound shown here, COC(=O)c1cc(C)[nH]c2c(C)cc3nc4ccccc4c3c12 , give the reported GI50.
5.75 µM

// lookup GI50 for CCOC(=O)N(O)c1ccc(/C=C/c2ccccc2)cc1
5.08 µM

Looking for the measured GI50 of CCCCCCCCc1cc(O)ccc1O , can you help?
10.5 µM

***
Can you look up the measured GI50 of CSc1nc2ccc(C)cc2cc1/C=C1/C=C(c2ccccc2)NC1=O for me?
8.9 µM

Quick check: GI50 of COC(=O)[C@@H](C)C[C@H](Cc1ccccc1)NC(=O)c1csc([C@@H](C[C@H](C(C)C)N(C)C(=O)[C@@H](NC(=O)[C@H]2CCCCN2C)C(C(F)(F)F)C(F)(F)F)OC(C)=O)n1 ?
0.059 µM

What does the record list as GI50 for COc1ccc(F)cc1-c1ccnc2[nH]c(C3=CCN(C4CCC(CC(=O)O)CC4)CC3)cc12 (centres undefined) ?
0.235 µM

Suppose we examine the compound C1CC[N-]CC1.CC(=N\O)/C(C)=N/O.CC(=N\O)/C(C)=N/O.C[CH-]C(C)O.[Co+2] ; what GI50 value has been reported?
18.8 µM

---

Tested on: MALME-3M melanoma
Assay: NCI tumour cell line growth inhibition, 48 h
Mark False for TGI values under 4 µM, and True for everything at or above.

Would you please look over these solved cases?
For this compound, is measured TGI 4 µM or higher? COc1ccc(C2=Nc3c(nc(SC)[nH]c3=O)NC(c3ccccc3)C2)cc1 (stereo not given)
True

Does CNC(=O)C1OC(n2cnc3c(NCc4cccc(I)c4)nc(Cl)nc32)C(O)C1O (stereo not given) have a reported TGI of at least 4 µM?
True

Reported TGI reaches at least 4 µM for CCc1n[nH]c(=O)[nH]1 ?
True

Could you verify whether the entry NC1=C(O)C(=O)C(c2c[nH]c3ccc(OCc4ccccc4)cc23)O1 (stereo not given) shows TGI of no less than 4 µM?
True

Could you verify whether the entry O=C(/C=C/c1ccc(Cl)cc1Cl)c1ccc(Cl)cc1Cl shows TGI of no less than 4 µM?
True

Others:
Exam item: decide whether the reported TGI for O=C(NNc1nc(-c2ccccc2)cs1)Nc1ccccc1 is at least 4 µM.
True

In plain terms: is recorded TGI at least 4 µM for CCN(CC)CCNc1ccc([N+](=O)[O-])c2nc3ccc(OC)cc3c(N)c12 ?
False

Determine whether measured TGI meets or exceeds 4 µM for CSc1nc(-c2ccccc2)nc(=[N+]2CCOCC2)s1
True

Exam item: decide whether the reported TGI for O=NNc1c[nH]c(=O)[nH]c1=O is at least 4 µM.
True

Could you please find out whether Cc1ccc2c(c1)Nc1ccccc1P2(=O)O has TGI that meets 4 µM or exceeds it?
True

Answer whether TGI of CN(C)CCOc1ccc2c(c1)C(=O)/C(=C\c1ncc([N+](=O)[O-])n1C)C2 is greater than or equal to 4 µM.
False

Please indicate if the recorded TGI for N=C(N)c1ccc(-c2ccc(-c3ccc(Cl)cc3Cl)s2)nc1 meets or exceeds 4 µM.
False

Reported TGI at or above 4 µM? CC(C)(CO)CNc1cc(Cl)nc(N)n1
True

Does the reported TGI for Cc1cc(O)c(C(C)C)cc1C(=S)Nc1ccc(Cl)cc1 fall at or above the 4 µM mark?
True

Threshold query (TGI >= 4 µM) on Cc1cn2cc(-c3ccc4c(c3)CC(=O)N4)nc2s1
True
